Tested on: NCI-H460
Assay Protocol: NCI tumour cell line growth inhibition, 48 h
Active and inactive are the calls of the source. No stated cut-off is given here; in the data, active = GI50 up to about 1.1 µM and inactive = higher.
Property Measured: GI50

[[record]]
compound = "C[C@H](CC[C@@H](O)C(C)(C)O)[C@H]1CC[C@@]2(C)[C@@H]3CC=C4[C@@H](CC[C@H](O)C4(C)C)[C@]3(C)C(=O)C[C@]12C [BRYODULCOSIGENIN]"
target_system = "NCI-H460"
val = "31.1 µM (inactive)"

[[record]]
compound = "O=[As](O)(O)c1cc(/N=N/c2ccc(-c3ccc(/N=N/c4cc([As](=O)(O)O)c(O)cc4O)cc3)cc2)c(O)cc1O"
target_system = "NCI-H460"
val = "> 100 µM (inactive)"

[[record]]
compound = "C/C(=N/NC(=O)c1ccccc1Nc1ccccc1C(=O)N/N=C(\\C)c1ccc(C)cc1)c1ccc(C)cc1"
target_system = "NCI-H460"
val = "15.5 µM (inactive)"

[[record]]
compound = "Cn1c2c([N+](=O)[O-])cccc2c(=O)c2c(O)cc3c(c21)C=CC(C)(C)O3"
target_system = "NCI-H460"
val = "36.6 µM (inactive)"

[[record]]
compound = "COC(=O)C1OC(Oc2cc(O)c3c(=O)cc(-c4ccc(O)cc4)oc3c2)C(O)C(O)C1O (stereo unspecified)"
target_system = "NCI-H460"
val = "> 100 µM (inactive)"


Indicate its recorded GI50; the compound in question is "CS/C(=N\Nc1cnc2ccccc2n1)NS(=O)(=O)c1cc(C)c(Cl)cc1Cl"
> 100 µM (inactive)

Quote GI50 reported for CC(=O)O[C@H]1CC[C@@]2(C)C(=C/C(=N\[N+](=O)[O-])[C@H]3C4CCC([C@H](C)CCCC(C)C)[C@@]4(C)CCC32)C1 (stereo partly specified) please.
> 100 µM (inactive)

Please look at this compound and report its GI50: CCC1C(c2ccccc2O)c2cc3c(cc2OC1N1CCOCC1)OCO3 (stereo unspecified)
14.3 µM (inactive)

Complete the entry with GI50 for "Cc1nc2c(O)cc3c4c(n(Cc5ccccc5)c3c2nc1C)C(=O)CCC4"
83 µM (inactive)

Give recorded GI50. COC(=O)C1C=CCC2CCCCC21N1CCCC1 (stereo unspecified)
55.2 µM (inactive)

Please report the measured GI50 for CC1CCC(O)/C=C/C(=O)OC(C)C(O)/C=C/C(=O)O1 (stereo unspecified)
> 100 µM (inactive)

Recall and state the measured GI50 for "O=C1NC2(CCN(CCc3ccccc3)CC2)Oc2ccccc21" .
> 100 µM (inactive)

Name the recorded GI50 of the compound listed here: "N/N=C(\Nc1ccccc1)SCc1ccccc1"
> 100 µM (inactive)

Please give measured GI50 of the following entry: CC(Oc1ccc(Cl)cc1Cl)C(=O)NN1C(=O)CSC1c1ccc(Cl)cc1 (stereo unspecified)
> 100 µM (inactive)

Entry "C[C@@H](Cl)[C@H]1CCCN(Cc2ccc(Br)cc2)C1" needs its GI50 filled in; supply it.
> 12.5 µM (inactive)

Assign GI50 to the following record: "C=C1CC2(OC1=O)c1ccccc1C=Cc1ccccc12"
11.2 µM (inactive)

For the compound "O=C(/N=N/c1ccc([N+](=O)[O-])cc1)NNc1ccc([N+](=O)[O-])cc1" , give its measured GI50 value.
19.6 µM (inactive)

Return value of GI50 for input "C[C@]12CC[C@@H]3c4cc(OCC(F)(F)F)c(O)cc4C(=O)C[C@H]3[C@@H]1CC[C@@H]2O" , no commentary.
4.71 µM (inactive)
